molecular target: TDO (Homo sapiens, UniProt P48775); assay: hTDO biochemical coupled assay; conditions: 330 μM L-tryptophan, 17 minutes, room temperature; read-out: hTDO biochemical assay pIC50 (converted)
Sequence (P48775 whole entry): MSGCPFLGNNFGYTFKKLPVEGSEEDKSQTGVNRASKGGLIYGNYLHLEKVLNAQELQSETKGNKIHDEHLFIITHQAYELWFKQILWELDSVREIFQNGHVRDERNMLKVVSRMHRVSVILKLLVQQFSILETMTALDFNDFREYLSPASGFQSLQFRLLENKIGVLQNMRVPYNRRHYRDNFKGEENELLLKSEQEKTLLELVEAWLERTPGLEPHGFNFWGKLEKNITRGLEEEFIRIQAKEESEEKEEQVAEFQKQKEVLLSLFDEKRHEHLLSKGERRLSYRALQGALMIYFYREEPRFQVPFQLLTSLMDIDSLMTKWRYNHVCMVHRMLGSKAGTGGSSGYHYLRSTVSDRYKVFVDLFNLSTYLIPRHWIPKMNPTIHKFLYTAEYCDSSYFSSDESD
readout type: IC50

See these solved cases before continuing.
- compound: "CNC(=O)C1CCCN(c2cc(Cl)cc3[nH]ncc23)C1 (stereo not shown) [Compound 210]"
  IC50: "3.24 to 31.6 µM"
- compound: "CC1(C)CN(c2cc(Cl)cc3[nH]ncc23)CCC1NS(C)(=O)=O (stereo not shown) [Compound 336]"
  IC50: "< 3.16 µM"
- compound: "Cc1cc(C2CCN(S(C)(=O)=O)CC2)c2cn[nH]c2c1 [Compound 30]"
  IC50: "< 3.16 µM"
- compound: "O=C(Nc1cccc2[nH]ncc12)C1CCOCC1 [Compound 5]"
  IC50: "32.4 to 100 µM"
- compound: "CN(C)S(=O)(=O)Nc1cccc2[nH]ncc12 [Compound 7]"
  IC50: "32.4 to 100 µM"
- compound: "Clc1cc(N2CCc3ccccc3C2)c2cn[nH]c2c1 [Compound 304]"
  IC50: "< 3.16 µM"

API: value(readout= IC50, system= TDO (Homo sapiens, UniProt P48775), query= CCS(=O)(=O)N1CCC(c2cc(Cl)cc3[nH]ncc23)CC1 [Compound 423] )
< 3.16 µM

----------
Biological target: TDO (Homo sapiens, UniProt P48775)
Test: A172 kynurenine cell-based assay
Parameters: This assay utilised cancer cells which expressed either TDO or IDO; endogenous in cells; host or cells: A172 (human glioblastoma)
Conditions: A172 human glioblastoma cells, 48 hours, 500 μM L-tryptophan; read-out: A172 Kynurenine cell based assay pIC50 (converted)
Experimental: Exemplary compounds of the invention were prepared, and tested to determine their effect as TDO and/or IDO inhibitors. […] This coupled enzyme system allowed conversion of N-formylkynurenine produced by TDO or IDO activity to kynurenine which was then quantified by fluorescence following addition of Erhlich's Reagent The protocols for these are set out below. […]
readout type: IC50

Solved cases below.
- compound: "CCc1cc(C2CCN(S(C)(=O)=O)CC2)c2cn[nH]c2c1"
  IC50: "3.24 to 31.6 µM"
- compound: "OC1(c2cc(Cl)cc3[nH]ncc23)CCCCC1"
  IC50: "< 3.16 µM"

Give the measured IC50 of "CN(C)S(=O)(=O)N1CCN(c2cccc3[nH]ncc23)CC1" .
3.24 to 31.6 µM

Data request, read-out IC50, for "CS(=O)(=O)N1CCCN(c2cc(Cl)cc3[nH]ncc23)CC1"
< 3.16 µM

Given the compound CCC1CN(c2cc(Cl)cc3[nH]ncc23)CCN1S(C)(=O)=O (stereo not drawn) , what is its reported IC50?
< 3.16 µM

Reported IC50 for "Cn1ccnc1N1CCN(c2cc(Cl)cc3[nH]ncc23)CC1" : what is it?
< 3.16 µM

Would you kindly share the measured IC50 for "Clc1cc(N2CCc3[nH]ncc3C2)c2cn[nH]c2c1" ?
< 3.16 µM

Endpoint output: IC50 of "O=C1NC2(CCO1)CCN(c1cc(Cl)cc3[nH]ncc13)CC2" . Value?
< 3.16 µM

What value of IC50 has been reported for the following compound? "CC(=O)N1CCN(c2cc(F)cc3[nH]ncc23)CC1"
3.24 to 31.6 µM

Can you look up the measured IC50 of CC1(C)CC(c2cccc3[nH]ncc23)CCN1S(C)(=O)=O (stereo not drawn) for me?
3.24 to 31.6 µM

Field request: IC50 | item: "CS(=O)(=O)N1CCN(c2cc(C3CC3)cc3[nH]ncc23)CC1"
3.24 to 31.6 µM

Which value of IC50 has been reported for "CC(=O)N1CCOC2(CCN(c3cc(Cl)cc4[nH]ncc34)CC2)C1" in the records?
3.24 to 31.6 µM
